Values compiled from ChEMBL document CHEMBL1165950.

System: NCI/ADR-RES
Experiment: Cytotoxicity against human NCI/ADR-RES cells assessed as cell growth at 0.001 uM after 48 hrs by sulforhodamine B assay
Type: functional
Details: read-out: Activity
measured-metric: growth at 0.001 µM (%)
Answer in %, number only, no unit symbol.

* COc1cc(C)cc(-c2c(-c3ccnc(-c4ccc(N(C)C)cc4)c3)cnn2CC#N)c1 | 96
* COc1cc(C)cc(-c2nn(CC#N)cc2-c2ccnc(-c3ccc(N(C)C)cc3)c2)c1 | 96
* COc1cc(C)cc(-c2nn(CC#N)cc2-c2ccc(-c3cccc(C(C)=O)c3)nc2)c1 | 99
* COc1cc(C)cc(-c2c(-c3ccnc(-c4ccc(C(C)=O)cc4)c3)cnn2CC#N)c1 | 95
* Cc1cc(O)cc(-c2nn(CC#N)cc2-c2ccnc(-c3ccc(N(C)C)cc3)c2)c1 | 97

Here is another compound to look at.
Query: Can you share its growth at 0.001 µM? I mean this compound: Cc1cc(O)cc(-c2nn(CC#N)cc2-c2ccnc(-c3ccc(Oc4ccccc4)cc3)c2)c1
Reply: 105

* * *

Tested on: HCC 2998
Experiment: Cytotoxicity against human HCC2998 cells assessed as cell growth at 0.01 uM after 48 hrs by sulforhodamine B assay
Assay type: functional
Details: HCC 2998, 48 h, read-out: Activity
measured-metric: growth at 0.01 µM (%)
Answer in %, number only, no unit symbol.

* COc1cc(C)cc(-c2c(-c3ccnc(-c4ccc(N(C)C)cc4)c3)cnn2CC#N)c1 | 30
* Cc1cc(O)cc(-c2nn(CC#N)cc2-c2ccnc(-c3ccc(Oc4ccccc4)cc3)c2)c1 | 89
* COc1cc(C)cc(-c2nn(CC#N)cc2-c2ccnc(-c3ccc(N(C)C)cc3)c2)c1 | 107
* COc1cc(C)cc(-c2c(-c3ccnc(-c4ccc(C(C)=O)cc4)c3)cnn2CC#N)c1 | 98
* COc1cc(C)cc(-c2nn(CC#N)cc2-c2ccc(-c3cccc(C(C)=O)c3)nc2)c1 | 87

Here is another molecule to look at.
Query: Checklist item: growth at 0.01 µM tested on HCC 2998, entry Cc1cc(O)cc(-c2nn(CC#N)cc2-c2ccnc(-c3ccc(N(C)C)cc3)c2)c1 , value?
Reply: 88

* * *

Tested on: SK-OV-3
Experiment: Cytotoxicity against human SKOV3 cells assessed as cell growth at 0.001 uM after 48 hrs by sulforhodamine B assay
Assay type: functional
Settings: SK-OV-3, 48 h, read-out: Activity
growth at 0.001 µM below 90% gives label 0; growth at 0.001 µM at or above it gives label 1.

* COc1cc(C)cc(-c2c(-c3ccnc(-c4ccc(N(C)C)cc4)c3)cnn2CC#N)c1 | label 1
* Cc1cc(O)cc(-c2nn(CC#N)cc2-c2ccnc(-c3ccc(Oc4ccccc4)cc3)c2)c1 | label 0
* COc1cc(C)cc(-c2nn(CC#N)cc2-c2ccc(-c3cccc(C(C)=O)c3)nc2)c1 | label 0

Query: Please indicate if the recorded growth at 0.001 µM for COc1cc(C)cc(-c2nn(CC#N)cc2-c2ccnc(-c3ccc(N(C)C)cc3)c2)c1 meets or exceeds 90%.
Reply: label 1

Query: Let us now turn to COc1cc(C)cc(-c2c(-c3ccnc(-c4ccc(C(C)=O)cc4)c3)cnn2CC#N)c1
Reply: label 0
